Measured viability, T/C, listed per entry for reference.
- System: 945468-187-T-J2-PDC spheroids viability;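 further: spheroids exposed to compounds for seven days before reading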
- experiment_summary: Anticancer human tumor 945468-187-T-J2-PDC patient-derived rectal carcinoma cell line growth inhibition [PI3K]
- test_parameters: second compound 1 µM; first compound 0.316 µM; active compounds read low; spheroids with HUVEC and MSC
Numeric only. Scale: %

// below: answered compounds
C#Cc1c(F)ccc2cc(O)cc(-c3ncc4c(N5CC6CCC(C5)N6)nc(OCC56CCCN5CC(F)C6)nc4c3F)c12 (stereo not drawn) + Cc1nc(NC(=O)N2CCCC2C(N)=O)sc1-c1ccnc(C(C)(C)C(F)(F)F)c1: 109
Cn1ncc(Cl)c1-c1cc(C(=O)NC(CN)Cc2cccc(F)c2)sc1Cl (stereo not drawn) + COc1c(OCCCN2CCOCC2)ccc2c3n(c(=NC(=O)c4cnc(N)nc4)nc12)CCN3: 18.2

viability, T/C measured on C=CC(=O)N1CCN(c2nc(=O)n(-c3c(C)ccnc3C(C)C)c3nc(-c4c(O)cccc4F)c(F)cc23)C(C)C1 (stereo not drawn) + Cc1nc(NC(=O)N2CCCC2C(N)=O)sc1-c1ccnc(C(C)(C)C(F)(F)F)c1 = 100

The measurements presented in this section are drawn from PubChem BioAssay AID1963972.
